Structures can show the parent of a compound that is named as a salt.
readout-type: melting point (°C)

// worked examples, melting point included
molecule | measured
CCOC(=O)C(=O)OCC [Diethyl oxalate] | -41
O=C(/C=C/c1ccc(O)cc1)c1ccccc1 [4-hydroxychalcone] | 184
c1ccncc1 | -42
COC(=O)OC [dimethyl carbonate] | 4
OB(O)c1cc(C(F)(F)F)ccc1F | 107

(I) COc1cc(OC)c2c(c1Cl)O[C@]1(C2=O)C(OC)CC(=O)C[C@H]1C (stereo not given in full) [Griseofulvin]
(II) CC(=O)c1ccc(Cl)cc1O [4'-chloro-2'-hydroxyacetophenone]
Field: lower melting point | Options: I / II Your answer should be the label of the entry you select.
II

====

readout-type: melting point (°C)

A selection of reference data follows.
compound | measured
N#CCc1c[nH]cn1 | 137
O=[N+]([O-])c1ccccc1CCl [2-nitrobenzyl_chloride] | 48

(1) Brc1ccc(I)cc1
(2) O=C(O)c1ccc(C(=O)C(F)(F)F)cc1
(3) C#CC(O)(c1ccccc1)c1ccccc1
Reorder: melting point, max to min. # list labels per requested ordering
2, 1, 3

====

readout-type: melting point (°C)

compound | unit-descriptor | melting point
O=C(O)c1ccc2ncccc2c1 | °C | 295
Clc1cc(Cl)cc(Cl)c1 | °C | 64
[O-][n+]1cccc(F)c1 [3-fluoropyridine n-oxide] | °C | 67
CCc1ccccc1Br | °C | -68

(A) C(=C/c1ccccc1)/c1ccccc1 [cis-stilbene]
(B) C1C2CC3CC1CC(C2)C3
Between A and B , whose recorded melting point is greater? Respond with the label that goes with your answer.
B
(B: 268 °C, A: 2 °C)

====

readout-type: melting point (°C)

molecule | melting point, °C
NC(=O)[C@H](Cc1ccccc1)NC(=O)OCc1ccccc1 [Nalpha-[(benzyloxy)carbonyl]phenylalaninamide] | 163
O=[N+]([O-])c1ccc(CCl)cc1 [4-nitrobenzyl_chloride] | 73
CCOC(=O)CCC(C)C1CCC2C3C(O)C(Br)C4CC(OC(C)=O)CCC4(C)C3CC(OC(C)=O)C12C (stereo not drawn) [ethyl 3,12-bis(acetyloxy)-6-bromo-7-hydroxycholan-24-oate] | 166
O=C(O)c1ccccc1Cl | 142
Clc1cccc(-c2ccccc2)c1 | 18

(1) COC(=O)c1ccccc1S(N)(=O)=O [2-(methoxycarbonyl)benzenesulfonamide]
(2) CC(C)CCCC(C)C1CCC2C3CCC4CCCCC4(C)C3CCC12C (stereo not drawn)
(3) CCCN(CCC)CCC [N,N-Dipropylpropan-1-amine]
Arrange items by their melting point values in increasing order. Answer by listing the labels in the requested order.
3, 2, 1
(3: -93.5 °C, 2: 80 °C, 1: 124 °C)

====

readout-type: melting point (°C)

(A) C=Cc1ccc(C)cc1
(B) O=C(O)c1cccnc1 [Nicotinic acid]
Returns: the argument ( A or B ) having the larger melting point. Write the label of whichever entry you select.
B

(1) COc1ccc2c(C(=S)N(C)CC(=O)O)cccc2c1C(F)(F)F
(2) C=CCCCCCC
(3) CCSc1ccc(B(O)O)cc1 [4-(ethylthio)benzeneboronic acid]
(4) COc1ccc(C(C)=O)cc1
Please list the entries, largest melting point first. Your answer should be the labels, listed in the requested order.
1, 3, 4, 2
(1: 164 °C, 3: 105 °C, 4: 38 °C, 2: -102 °C)

(1) COc1cc(C(C)=O)cc(OC)c1O [3',5'-dimethoxy-4'-hydroxyacetophenone]
(2) CCCCCCCCN
(3) CCCCCCCCCCCC(=O)O
List the 3 entries from lowest melting point to highest melting point value. Please respond by ranking the labels in the order requested.
2, 3, 1
(2: 0 °C, 3: 45 °C, 1: 119 °C)

(a) CCOc1ccc2ccccc2c1C(=O)O
(b) O=C1CCCc2cc3c(c(CSc4ccccc4)c21)-c1ccccc1OC3
Looking at a and b , which one comes out lower in melting point terms? Let me know the label of the one you choose.
b

====

readout-type: melting point (°C)

Sample records with melting point:
compound | melting point, °C
Cc1ccc([N+](=O)[O-])cc1 [4-nitrotoluene] | 53
Sc1nnc2ccccn12 [1,2,4-triazolo[4,3-a]pyridine-3-thiol] | 210
OB(O)c1cc2ccccc2nc1Cl [2-chloroquinoline-3-boronic acid] | 146

(a) O=c1cc[nH]c(=O)[nH]1 [uracil]
(b) Cc1ccnc2ccccc12 [lepidine]
(c) OC1(c2ccc(Cl)cc2)CCNCC1 [4-(4-chlorophenyl)-4-hydroxypiperidine]
(d) Nc1ccccc1S [2-aminothiophenol]
Thanks in advance: please rank these 4 entries by melting point, highest to lowest. The response must list the labels following the requested ordering.
a, c, d, b
(a: 330 °C, c: 139 °C, d: 19 °C, b: 10 °C)

(P) OCc1c(F)c(F)c(F)c(F)c1F [2,3,4,5,6-Pentafluorobenzyl Alcohol]
(Q) CCCCCCCCCCCCI [1-iodododecane]
Response body: label of entry with the larger melting point; valid values P , Q . Could you answer with the label of the item you picked?
P

====

readout-type: melting point (°C)

Look over these answered cases.
molecule | unit-descriptor | measured
O=Cc1cc(Br)cc(Br)c1 | °C | 91
CCNc1ccccc1 [N-ethylaniline] | °C | -64
Cc1cc(C(O)=NCC(=N)O)c(C)n1-c1ccc(F)cc1 | °C | 194
OCc1ccncc1 | °C | 54

(1) Cc1cc(F)ccc1B(O)O
(2) O=C1CCCCCCCCCCC1
(3) COC(=O)c1ccc(N)cc1 [methyl 4-aminobenzoate]
Sort the molecules on melting point; start with the lowest figure. Response field: labels, in requested order.
2, 3, 1

====

readout-type: melting point (°C)

molecule | measured
COc1cc(C(=O)O)cc(OC)c1OC | 172

(I) Cc1cccc(O)c1
(II) Cc1cncc(C(=O)O)c1
(III) CCOC(=O)/C(C#N)=C\c1ccc(-c2ccc(C)cc2)o1 [Ethyl (2Z)-2-cyano-3-[5-(4-methylphenyl)-2-furyl]acrylate]
(IV) CC(=O)CC(=O)Nc1ccccc1 [3-Oxo-N-phenylbutanamide]
(V) CCCCCCCCCCCc1ccccc1
Returns the items ordered by melting point, from maximum to minimum. Please respond with the labels ordered as the question requires.
II, III, IV, I, V

====

Where a name gives a salt, the structure may show the parent alone.
readout-type: melting point (°C)

Field: example entries. Status: answers known.
molecule | unit-descriptor | measured
Cc1ccc(N)c([N+](=O)[O-])c1 | °C | 117
CC(C)Br | °C | -89
Nc1cc(Cl)ccc1[N+](=O)[O-] | °C | 119
COC(=O)c1ccc(OC)c(F)c1 [methyl 3-fluoro-4-methoxybenzoate] | °C | 71
CC(=O)Nc1ccc(F)cc1F [2',4'-difluoroacetanilide] | °C | 122
CCOC(=O)C(=O)OCC [diethyl oxalate] | °C | -40
COc1ccc(B(O)O)c(C)c1 | °C | 191
N#Cc1cccc(C#N)c1 | °C | 161

(A) CC(Oc1c(Cl)cccc1Cl)C1=NCCN1 (stereo unspecified)
(B) CS(=O)c1ccc(cc1)/C=C3c2ccc(F)cc2C(CC(=O)O)=C3C (stereo unspecified) [Sulindac]
Out of A and B , name the one with the higher melting point. When you have decided, please share the label of that item.
B
(B: 183 °C, A: 127 °C)

(a) CC(C)(C)OC(=O)N[C@@H](CO)Cc1ccccc1
(b) O=C4\C=C2/[C@]([C@H]1CC[C@@]3([C@@](O)(C(=O)CO)CC[C@H]3[C@@H]1CC2)C)(C)CC4 [cortexolone]
// pick larger melting point from pair: a vs b # answer = label of selected item
b

(P) CCCCCCCCCCCCCCCC(C)C
(Q) CC(C)(C)NCC(O)COc1cccc2c1C[C@H](O)[C@H](O)C2 (stereo partly specified)
(R) COc1cc(/C=C/CO)ccc1O
List from greatest to least melting point. Put the labels in the requested order and list them out.
Q, R, P

====

readout-type: melting point (°C)

molecule | unit-descriptor | melting point
CC(=O)N[C@@H](Cc1ccc(O)cc1)C(=O)O | °C | 153
Cc1cc(C=O)c(C)n1-c1ccc(F)cc1 | °C | 118
O=C(c1ccccc1)c1cccc(O)c1 [3-hydroxybenzophenone] | °C | 114
Cc1ccccc1 [toluene] | °C | -93
C=C(C)Cn1c(N)cc(=O)n(C)c1=O | °C | 175
Cc1ccc(C)n1-c1ccc(F)cc1 | °C | 48.5

(A) CC(=O)c1ccc(F)c(Cl)c1
(B) CC(O)C(=O)O (centres undefined)
(C) CCCc1cc(Br)c(N)c(Br)c1
Rank ascending by melting point. Put the labels in the requested order and write them down.
B, A, C
(B: 18 °C, A: 39 °C, C: 56 °C)

====

readout-type: melting point (°C)

Study these solved cases before continuing.
compound | melting point, °C
CCCCc1ccc(C#Cc2ccc(CCCC)cc2)cc1 [1-n-butyl-4-[(4-butylphenyl)ethynyl]benzene] | 41
Nc1ccc(Br)cc1 [4-Bromoaniline] | 66
Cc1cc(C)c(C)c(CCl)c1C [2,3,5,6-tetramethylbenzyl chloride] | 70
Cc1ccc([N+](=O)[O-])cc1N [2-methyl-5-nitroaniline] | 107

(1) COc1cc(C)c(C=CC(C)=CC=CC(C)=CC(=O)O)c(C)c1C [acitretin]
(2) CCCCOCCOCCO [diethylene glycol mono-n-butyl ether]
(3) FC(F)(F)c1cccc(Br)n1 [2-bromo-6-(trifluoromethyl)pyridine]
(4) CCC(C)OC(C)=O (stereo not given) [sec-butyl acetate]
Falling order of melting point, please. Rank them, then answer with their labels in that order.
1, 3, 2, 4
(1: 228 °C, 3: 50 °C, 2: -68 °C, 4: -99 °C)
